- METHOD: Drug exposure in tumor of C57BL/6 mouse injected with mouse MC38 cells at 10 mg/kg, po measured 3 hrs post dose on day 25 by LC/MS analysis
- Format: ADME, organism-based, Neoplasm, MC-38
- APPLIED CONDITIONS: time 25 day, read-out: Drug uptake
MEASURED PROPERTY: concentration at 600 h (ng/mL)
Express your answer in ng/mL, writing the number without its unit.

In plain terms, `CCS(=O)(=O)c1ccc([C@H](CO)NC(=O)c2ccc3c(c2)cc(Cc2ccc(Cl)cc2C(F)(F)F)n3CCF)cc1` has a documented concentration at 600 h of 2020

====

- METHOD: Drug exposure in plasma of C57BL/6 mouse injected with mouse MC38 cells at 10 mg/kg, po measured 3 hrs post dose on day 25 by LC/MS analysis
- Format: ADME, organism-based, MC-38
- APPLIED CONDITIONS: time 25 day
MEASURED PROPERTY: concentration at 600 h

In plain terms, `CCS(=O)(=O)c1ccc([C@H](CO)NC(=O)c2ccc3c(c2)cc(Cc2ccc(Cl)cc2C(F)(F)F)n3CCF)cc1` has a documented concentration at 600 h of 9120 ng/mL

====

- METHOD: AUC (0 to t) in mouse at 1 mg/kg, iv
- Format: ADME, organism-based
- Parameters: dose 1 mg/kg, route iv
- APPLIED CONDITIONS: in vivo
Field: AUC(0-t). Provide a value for each of the compounds that follow.
Express your answer in ng·h/mL, writing the number without its unit.

In plain terms, `CCS(=O)(=O)c1ccc([C@H](CO)NC(=O)c2ccc3c(c2)cc(Cc2ccc(Cl)cc2C(F)(F)F)n3CCF)cc1` has a documented AUC(0-t) of 79800

In plain terms, `CCS(=O)(=O)c1ccc(CNC(=O)c2ccc3c(c2)cc(Cc2ccc(Cl)cc2C(F)(F)F)n3CCF)cc1` has a documented AUC(0-t) of 20000

====

- TARGET SYSTEM: UniProt:P51449
- METHOD: Agonist activity at N-terminal GST tagged human RORgamma LBD using fluorescein-D22 as coactivator incubated for 60 mins by Lanthascreen TR-FRET assay
MEASURED PROPERTY: pEC50
Recall that pEC50 is obtained by taking minus log10 of the concentration measured in molar.

In plain terms, `CCc1ccccc1Cc1cc2cc(C(=O)NCc3ccc(S(=O)(=O)CC)cc3)ccc2n1C(C)C` has a documented pEC50 of 7.60

In plain terms, `CCS(=O)(=O)c1ccc(CNC(=O)c2ccc3c(c2)cc(Cc2ccc(Cl)cc2C(F)(F)F)n3C(C)C)cc1` has a documented pEC50 of 7.96

In plain terms, `CCS(=O)(=O)c1ccc(CNC(=O)c2ccc3c(c2)cc(Cc2ccc(Cl)cc2C(F)(F)F)n3CCF)cc1` has a documented pEC50 of 8.70

In plain terms, `CCS(=O)(=O)c1ccc(CNC(=O)c2ccc3c(c2)cc(Cc2ccc(F)cc2C(F)(F)F)n3C(C)C)cc1` has a documented pEC50 of 7.85

====

- TARGET SYSTEM: Nuclear receptor ROR-gamma (Homo sapiens)
- Sequence (P51449 whole entry, the tested form may be a part): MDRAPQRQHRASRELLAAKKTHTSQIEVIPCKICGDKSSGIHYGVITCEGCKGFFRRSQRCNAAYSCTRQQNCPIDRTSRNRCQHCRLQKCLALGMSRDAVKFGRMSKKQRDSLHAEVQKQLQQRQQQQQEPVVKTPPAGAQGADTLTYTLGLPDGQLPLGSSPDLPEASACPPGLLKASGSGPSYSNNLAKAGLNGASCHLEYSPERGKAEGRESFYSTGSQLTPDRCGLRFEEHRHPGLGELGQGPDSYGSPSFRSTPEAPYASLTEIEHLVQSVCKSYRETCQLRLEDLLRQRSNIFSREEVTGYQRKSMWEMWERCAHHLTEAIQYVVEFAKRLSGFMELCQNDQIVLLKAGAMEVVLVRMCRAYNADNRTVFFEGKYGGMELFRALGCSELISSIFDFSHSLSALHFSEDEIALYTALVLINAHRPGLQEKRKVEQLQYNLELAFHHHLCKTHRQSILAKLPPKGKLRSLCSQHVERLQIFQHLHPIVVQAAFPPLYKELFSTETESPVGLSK
- METHOD: Antagonist activity at N-terminal GST tagged human RORgamma LBD using fluorescein-D22 as coactivator incubated for 60 mins by Lanthascreen TR-FRET assay
Field: pEC50. Provide a value for each of the compounds that follow.
Recall that pEC50 is obtained by taking minus log10 of the concentration measured in molar.

In plain terms, `CCS(=O)(=O)c1ccc(CNC(=O)c2ccc3c(c2)cc(Cc2ccccc2C)n3C(C)C)cc1` has a documented pEC50 of 7.36

In plain terms, `CCS(=O)(=O)c1ccc(CNC(=O)c2ccc3c(c2)cc(Cc2cccc(C(F)(F)F)c2)n3C(C)C)cc1` has a documented pEC50 of 8.00

In plain terms, `CCS(=O)(=O)c1ccc(CNC(=O)c2ccc3c(c2)cc(Cc2ccccc2)n3C(C)C)cc1` has a documented pEC50 of 6.17

In plain terms, `CCS(=O)(=O)c1ccc(CNC(=O)c2ccc3c(c2)cc(Cc2ccc(C(F)(F)F)cc2)n3C(C)C)cc1` has a documented pEC50 of 6.82
